Assign Vd to each entry below.
experiment: Volume of distribution at steady state in monkey after iv administration; assay type: ADME, organism-based; conditions: macaca, in vivo, read-out: Vdss
One number for each entry, in L/kg.

- Molecule: "NC(=O)c1cc[n+](COC[n+]2ccccc2/C=N/O)cc1"
  Experimental Result: 0.34

List reported Vd for each of these molecules:
1. Nc1nc(/C(=N/O)C(=O)N[C@@H]2C(=O)N3C(C(=O)O)=C(/C=C4\CCN(CC(F)(F)F)C4=O)CS[C@H]23)cs1
2. COCCOC(=O)C1=C(C)NC(C)=C(C(=O)OC(C)C)C1c1cccc([N+](=O)[O-])c1 (stereo not drawn)
3. O=C(O)C[C@H](NC(=O)CP(=O)(O)O)C(=O)O
4. C#CCCCC(=O)c1cc(C(C)(C)C)c(O)c(C(C)(C)C)c1
5. CC[C@]1(O)C[C@H]2CN(CCc3c([nH]c4ccccc34)[C@@](C(=O)OC)(c3cc4c(cc3OC)N(C=O)[C@H]3[C@@](O)(C(=O)OC)[C@H](OC(C)=O)[C@]5(CC)C=CCN6CC[C@]43[C@@H]65)C2)C1
6. CC#CCC(C)[C@H](O)/C=C/[C@@H]1[C@H]2C/C(=C/CCCC(=O)O)C[C@H]2C[C@H]1O (stereo partly drawn)
7. CN(C)CCCC1(c2ccc(F)cc2)OCc2cc(C#N)ccc21 (stereo not drawn)

1. 0.12
2. 3.6
3. 0.35
4. 53
5. 1.3
6. 0.9
7. 10
